Entries annotated with measured Inhibition (%)
Test system: trehalase derived from Nocardia sp. NK-2067
Test: Inhibition specificity of the novel trehalase to various sugars, trehalose as substrate
Assay type: biochemical
Details: sugar at 1.75 mM
Just the number please, in %, no unit attached.

OC[C@H]1O[C@@](CO)(O[C@H]2O[C@H](CO)[C@@H](O)[C@H](O)[C@H]2O)[C@@H](O)[C@@H]1O; 0
OC[C@H]1O[C@H](O[C@H]2C(O)O[C@H](CO)[C@@H](O)[C@@H]2O)[C@H](O)[C@@H](O)[C@@H]1O (stereo partly drawn); 0
OC[C@H]1OC[C@H](O)[C@@H](O)[C@@H]1O [1,5-Anhydroglucitol]; 80.7
OC[C@H]1O[C@H](O[C@H]2[C@H](O)[C@@H](CO)OC(O)[C@@H]2O)[C@H](O)[C@@H](O)[C@@H]1O (stereo partly drawn); 0
OC[C@H]1O[C@H](O[C@H]2[C@H](O)[C@@H](O)[C@H](O)O[C@@H]2CO)[C@H](O)[C@@H](O)[C@@H]1O; 0

Now for a further compound.
### Prompt Please look up its Inhibition (%): OC[C@H]1O[C@@H](O[C@H]2[C@H](O)[C@@H](O)C(O)O[C@@H]2CO)[C@H](O)[C@@H](O)[C@H]1O (stereo partly drawn)
### Response 0

----------
Target: trehalase derived from Nocardia sp. NK-2067
Assay: Substrate and inhibitor affinity by Lineweaver-Burk plot
Conditions: pH 5.5, Lineweaver-Burk plot; read-out: Ki value of the enzyme
Procedure: The Km value of the enzyme for trehalose at pH 5.5 as determined by Lineweaver-Burk plot [J. Am. Chem. Soc., 56, 658 (1934)] is 6.7 mM.
experimental-endpoint: Ki (µM)
Answer format: numeric, µM implied, no suffix.

### Prompt So what's the measured Ki for this one? OC[C@H]1OC[C@H](O)[C@@H](O)[C@@H]1O [1,5-Anhydroglucitol]
### Response 330

----------
Tested on: trehalase derived from Nocardia sp. NK-2067
Test: Effect of metal chelating agents, enzyme inhibitors and metal ions on the novel trehalase
Type: biochemical
Details: compound at 1 mM
Label criterion met when Inhibition (%) is at or above 60%; anything below gets criterion not met.

O=C(O)c1cc[c]([Hg][OH])cc1 [p-Mercuribenzoic acid]; criterion met
[Ba+2].[Cl-].[Cl-] [BaCl2]; criterion not met

### Prompt Record [Cl-].[Cl-].[Co+2] [CoCl2] ; criterion: Inhibition (%) no lower than 60%. Met?
### Response criterion not met

### Prompt I'd appreciate it if you could say whether CCN(CC)C(=S)S [Diethyldithiocarbamic acid] has Inhibition (%) at least equal to 60%.
### Response criterion not met

### Prompt Has O=S(=O)([O-])[O-].[Zn+2] [ZnSO4] a recorded Inhibition (%) greater than or equal to 60%?
### Response criterion not met

### Prompt Threshold query (Inhibition (%) >= 60%) on NC(=O)CI [Iodoacetamide]
### Response criterion met

### Prompt Quick check, Inhibition (%) >= 60%? O=C1CCC(=O)N1Br [N-Bromosuccinimide]
### Response criterion not met

----------
The following compounds are listed with their measured Relative activity (%) values.
System: trehalase derived from Nocardia sp. NK-2067
Test: Substrate specificity of the novel trehalase (activity on various substrates)
Assay type: biochemical
Conditions: substrate 1.75 mM, 100 mM phosphate buffer pH 5.5; activity on trehalose defined as 100

OC[C@H]1O[C@H](O[C@H]2O[C@H](CO)[C@@H](O)[C@H](O)[C@H]2O)[C@H](O)[C@@H](O)[C@@H]1O; 100%

Consider the additional compound presented here.
### Prompt Report Relative activity (%) for N[C@H]1[C@@H](O[C@H]2O[C@H](CO)[C@@H](O)[C@H](O)[C@H]2O)O[C@H](CO)[C@@H](O)[C@@H]1O tested on trehalase derived from Nocardia sp. NK-2067.
### Response 0.5%

----------
Tested on: trehalase derived from Rhodococcus globerulus ATCC 14898
Experiment: Test Example 1: specificity of inhibition by 1,5-anhydroglucitol
Type: biochemical
Details: test sugar 1 mM, 100 mM phosphate buffer pH 7.0, 10 mg/ml trehalose, 10 minutes
Overview of recorded Inhibition (%) for various compounds
Numbers only; they are read as %.

OC[C@H]1OC(O)[C@@H](O)[C@@H](O)[C@@H]1O (stereo partly drawn) [D-Mannose]; 0.5
OC1OC[C@@H](O)[C@H](O)[C@H]1O (stereo partly drawn) [D-Xylose]; 0
C[C@H]1OC(O)[C@H](O)[C@@H](O)[C@H]1O (stereo partly drawn) [D-Fucose]; 0

### Prompt Inhibition (%) for OC[C@H]1O[C@@](CO)(O[C@H]2O[C@H](CO)[C@@H](O)[C@H](O)[C@H]2O)[C@@H](O)[C@@H]1O [Sucrose] ?
### Response 0

### Prompt Look up Inhibition (%) for this compound: O=C(CO)[C@@H](O)[C@H](O)[C@H](O)CO [D-Fructose]
### Response 0

### Prompt Fill in: Inhibition (%) of OC[C@H]1OC(O)[C@H](O)[C@@H](O)[C@H]1O (stereo partly drawn) [D-Galactose] is ___
### Response 0.2

### Prompt Would you kindly share the measured Inhibition (%) for CC(=O)N[C@H]1C(O)O[C@H](CO)[C@@H](O)[C@@H]1O (stereo partly drawn) [N-Acetyl-D-glucosamine] ?
### Response 0

### Prompt # query: Inhibition (%) of entry OC[C@H]1OC[C@H](O)[C@@H](O)[C@@H]1O [1,5-Anhydroglucitol]
### Response 45.0

### Prompt Data request, read-out Inhibition (%), for C[C@@H]1OC(O)[C@@H](O)[C@H](O)[C@@H]1O (stereo partly drawn) [L-Fucose]
### Response 0

### Prompt Look at this compound and give its reported Inhibition (%). OC[C@H]1O[C@H](O[C@H]2[C@H](O)[C@@H](O)[C@H](O)O[C@@H]2CO)[C@H](O)[C@@H](O)[C@@H]1O [Maltose]
### Response 0

### Prompt If you can, please state the reported Inhibition (%) value of N[C@H]1C(O)O[C@H](CO)[C@@H](O)[C@@H]1O (stereo partly drawn) [D-Glucosamine] .
### Response 0

----------
System: trehalase derived from Nocardia sp. NK-2067
Experiment: Effect of metal chelating agents, enzyme inhibitors and metal ions on the novel trehalase
Assay type: biochemical
Conditions: compound at 1 mM
experimental-endpoint: Inhibition (%)
Write the number in % without appending the unit.

Some compounds with recorded Inhibition (%):
c1ccc(-c2ccccn2)nc1; 60.0
CCN1C(=O)C=CC1=O [N-Ethylmaleimide]; 21.9
NO [Hydroxylamine]; 81.2
[N-]=[N+]=[N-] [Sodium azide]; 22.8

Query compound follows.
### Prompt # input compound: c1cnc2c(c1)ccc1cccnc12 ; wanted: its Inhibition (%)
### Response 88.5
